System: SNB-75 CNS
Assay Details: NCI-60 one-dose screen, 48 h (100 = growth as untreated, 0 = no growth, -100 = all killed)
Condition Notes: 10 µM unless noted
Compounds without any hit were thinned out: in the full panel of roughly 83,000, 20% have a hit.
Quantity Kind: growth (%)
Hi! Could you send only the number? It should be in %, unit omitted.

Some molecules with recorded growth:
Cn1c2c(cc(S(=O)(=O)c3ccccc3)c1=O)CCc1c-2cnn1-c1ccccc1Cl
92.5
CON=C1C[C@]2(C[C@@H]3C[C@@H](C/C=C(\C)C[C@@H](C)/C=C/C=C4\CO[C@@H]5[C@H](O)C(C)=C[C@@H](C(=O)O3)[C@]45O)O2)O[C@H](/C(C)=C/C(C)C)[C@H]1C
140
COc1ccc(/C=N/OCC(O)CNCc2ccccc2)cc1OC1CCCC1 (centres undefined)
77.9

--- query ---
Task: Return value of growth for input COc1cc(-c2nc(Nc3nc4ccccc4[nH]3)nc(N)c2C#N)cc(OC)c1OC , no commentary.
Output: 29.2

* * *

Tested on: UACC-257 melanoma
Assay Details: NCI-60 one-dose screen, 48 h (100 = growth as untreated, 0 = no growth, -100 = all killed)
Condition Notes: 10 µM unless noted
Compounds without any hit were thinned out: in the full panel of roughly 83,000, 20% have a hit.
Quantity Kind: growth (%)
Give the value, in units of %, as a plain number.

Illustrative cases are given below, each with its answer.
CCCCCCCCCCCCCCNc1nc(CO)ncc1-c1ccc(C(F)(F)F)cc1
94.7
O=C1c2ccccc2-c2nnc(-c3ccc(Br)cc3)cc21
52.6
O=S(=O)(/N=C1C=C/C(=N\S(=O)(=O)c2ccccc2)c2ccccc2\1)c1ccccc1
95.1
CN1CCN(C)c2cncc(Br)c2C1=O
90.3
COc1cc(/C=N/NC(=O)c2cnn3c2NC(c2ccccc2)C3)ccc1OC1CCCC1 (stereo not drawn)
43.4

Task: Please report the measured growth for Cc1nc2ccc(Cl)cc2n1C
Output: 100

Task: Identify measured growth corresponding to Cc1c(NCC(=O)Nc2nc3ccccc3[nH]2)c(=O)n(-c2ccccc2)n1C
Output: 94.4

Task: Please list growth recorded for the compound O=C(Nc1ccccc1)Oc1cccc2cccnc12
Output: 75.6

Task: Given the compound Fc1ccccc1Nc1ccc2nnc(-c3ccncc3)n2n1 , write its reported growth.
Output: 105

Task: Could you please provide reported growth for COc1ccc(/C=C2\CN(Cc3cn(CCCNc4ccnc5cc(Cl)ccc45)nn3)C/C(=C\c3ccc(OC)cc3)C2=O)cc1 ? Thanks!
Output: 56

Task: Report growth for COc1ccc(Nc2[nH]n(C3=Nc4ccccc4Sc4ccccc43)c(=O)c2C#N)cc1
Output: 36.3

* * *

System: A549/ATCC NSCLC
Assay Details: NCI-60 one-dose screen, 48 h (100 = growth as untreated, 0 = no growth, -100 = all killed)
Condition Notes: 10 µM unless noted
Compounds without any hit were thinned out: in the full panel of roughly 83,000, 20% have a hit.
# growth per record follows
Value expressed in %; do not type the unit.

Look over these answered cases.
COC(=O)c1ccc(C(=O)Nc2ccccc2N)cc1
94.7
CCN(c1ccc(C(=O)N2CCN(c3ccccc3)CC2)cc1)S(C)(=O)=O
105
COc1ccc(/C=N/OCC(O)CNCc2ccccc2)cc1OC1CCCC1 (stereo unspecified)
93.5

Task: Please supply the value of reported growth for the item CCOc1ccc(/C=N\N2CCCCCC2)cc1OCC
Output: 106

Task: Identify measured growth corresponding to CCN(C(=O)c1ccc2c3c(cccc13)C=C2)c1ccccc1
Output: 80.2

Task: Name the recorded growth of the item O=C1N/C(=C\c2ccccc2)c2ncccc21 in your answer.
Output: 106

Task: Given the compound O=C1c2c(c3c4cc(Br)ccc4[nH]c3c3ccc4ccccc4c23)C(=O)N1O , write its reported growth.
Output: 95.6

Task: Annotate the compound CCCCCCCCCCCCCCn1c2ccccc2c2c3c(c4c5cc(OC)ccc5oc4c21)C(=O)NC3=O with its measured growth.
Output: 103

Task: Provide growth value for the following compound: O=c1c2cc(F)ccc2oc2c(NCCNCCO)nc3ccccc3c12
Output: 45.1

Task: Give recorded growth. N#C/C(=C\c1ccc[nH]1)c1cc2ccccc2[nH]1
Output: 54.2

Task: Could you please provide reported growth for Nc1cc2[nH]c(=O)c3ccccc3c2cc1Br ? Thanks!
Output: 84.5

* * *

// growth lookup, one value per entry
System: HT29 colon
Assay Details: NCI-60 one-dose screen, 48 h (100 = growth as untreated, 0 = no growth, -100 = all killed)
Condition Notes: 10 µM unless noted
This is part of a sample that, as a whole, favours compounds with a hit. Of some 83,000 tested, about 20% had one in any assay. Calls of active or inactive are those of the source. Rule for the calls: active = growth percent below 10; inactive = the rest.

Below: 5 compounds and their reported growth.
OC[C@@H](O)[C@@H](O)CO
106% (inactive)
Cc1nc(NN)c([N+](=O)[O-])c(NN)n1
108% (inactive)
Cc1cc(Cl)c2c(Cl)ccc(Cl)c2n1
102% (inactive)
CC[Si](CC)(CC)OC1[C@@H](O[Si](CC)(CC)CC)[C@@H](CNC(=O)NC)O[C@H]1n1cnc2c(NC(=O)Nc3ccccc3)ncnc21 (stereo partly specified)
50.2% (inactive)
O=c1oc2ccccc2cc1-c1csc(N/N=C/c2cc3ccccc3nc2Cl)n1
100% (inactive)

Task: Give me measured growth, please, for this compound: C=CC(=O)N1CC2(CC(n3nc(-c4ccc(Oc5ccccc5)cc4)c4c(N)ncnc43)C2)C1
Output: 31.7% (inactive)

* * *

The reader will find reported growth values listed item by item below.
System: RPMI-8226 leukemia
Assay Details: NCI-60 one-dose screen, 48 h (100 = growth as untreated, 0 = no growth, -100 = all killed)
Condition Notes: 10 µM
This is part of a sample that, as a whole, favours compounds with a hit. Of some 83,000 tested, about 20% had one in any assay. The source made the active and inactive calls. Rule for the calls: active = growth percent below 10; inactive = the rest.

Solved entries:
CCCCC(O)Cn1ncc(C(=O)OCC)c1NC(=O)NCc1ccccc1C(F)(F)F (stereo unspecified)
88.6% (inactive)
Clc1ccc(C2=Nc3cccc4cccc(c34)N2)cc1Cl
56.8% (inactive)
Clc1cccc(Cl)c1Nc1ccc2nnc(-c3ccncc3)n2n1
93.3% (inactive)
Brc1ccc(Br)nn1
-19.7% (active)
N#CCCN1CCN(CCC#N)C1=S
111% (inactive)
CSc1nnc(-c2sc3nnc(-c4ccccc4)c(-c4ccccc4)c3c2O)o1
67.2% (inactive)
CCOC(=O)c1c(Cl)c2c(n1Cc1cc(OC)cc(OC)c1)-c1oncc1CCC2
9.5% (active)
O=S(=O)(/N=C1C=C/C(=N\S(=O)(=O)c2ccccc2)c2ccccc2\1)c1ccccc1
77.9% (inactive)
Oc1ccccc1/C=N/Nc1nc2ccccc2s1
35.8% (inactive)
CN1CCN(c2nc(-c3ccncc3)nc3sc4c(c23)CCCCCC4)CC1
69% (inactive)

Task: For CCN1CCN(C(=S)SCC(=O)Nc2nc3ccc(OC)cc3s2)CC1 , write its growth.
Output: 98% (inactive)

* * *

System: SN12C renal
Assay Details: NCI-60 one-dose screen, 48 h (100 = growth as untreated, 0 = no growth, -100 = all killed)
Condition Notes: 10 µM unless noted
Compounds without any hit were thinned out: in the full panel of roughly 83,000, 20% have a hit.
Reported growth by item:
Value expressed in %; do not type the unit.

C=CC[P+](c1ccccc1)(c1ccccc1)c1ccccc1
69.7

Lab note: next compound to report on.
Task: Please report the measured growth for CC(=O)N(CC(O)CO)c1c(I)c(C(=O)NCCO)c(I)c(C(=O)NCC(O)CO)c1I (stereo not given)
Output: 98.9

* * *

Overview of recorded growth for various compounds
System: M14 melanoma
Assay Details: NCI-60 one-dose screen, 48 h (100 = growth as untreated, 0 = no growth, -100 = all killed)
Condition Notes: 10 µM unless noted
This is part of a sample that, as a whole, favours compounds with a hit. Of some 83,000 tested, about 20% had one in any assay.
Express your answer in %, writing the number without its unit.

O=C1c2cc(S(=O)(=O)O)ccc2C(=O)c2c1cccc2[N+](=O)[O-]
95.2
COC(=O)[C@H]1CCCN1C(=O)[C@H]1CCCN1C(=O)[C@@H](Cc1c[nH]c2ccccc12)NC(=S)Nc1cc(C(F)(F)F)cc(C(F)(F)F)c1
44.4
CC(C)(C)[Si](C)(C)OC1[C@@H](COC(N)=O)O[C@@H](n2cnc3c(N)ncnc32)[C@H]1O[Si](C)(C)C(C)(C)C (some centres undefined)
98.8

Continue with the next compound.
Task: Please report growth for the following compound: CC1CCCCN1S(=O)(=O)c1ccc(CN=C=S)cc1 (centres undefined)
Output: 42

* * *

Test system: 786-0 renal
Assay Details: NCI-60 one-dose screen, 48 h (100 = growth as untreated, 0 = no growth, -100 = all killed)
Condition Notes: 10 µM unless noted
Description: Cells are grown in 96 well plates and exposed to the test compound for 48 hours. Compounds are tested at a single concentration, which is 10^-5 M for most compounds. The reported endpoint is percent growth (GI% or GIPRCNT), where numbers from 0 - 100% represent growth inhibition, and numbers from -100% - 0 represent cell death. For example, a value of 40 represents 60% growth inhibition. A value of 0 means no net growth occurred over the course of the experiment. […]
Compounds without any hit were thinned out: in the full panel of roughly 83,000, 20% have a hit.
Quantity Kind: growth (%)
Note: unit % is implicit; provide only the numeric part.

CN([N-]C(=O)CC(=O)[N-]N(C)C(=S)c1ccccc1)C(=S)c1ccccc1.[Cu+2]
-72

Task: In one line, give reported growth of the entry CCN(CC)c1ccc2c(c1)OS(=O)(=O)N=C2 .
Output: 93

Task: Determine its reported growth: C[C@@H](Oc1cc(-c2cnn(C3CC4(CCNCC4)C3)c2)cnc1N)c1c(F)ccc(Cl)c1Cl
Output: -2.08

Task: Output measured growth for this item: COC(=O)[C@H]1CCCN1C(=O)[C@H]1CCCN1C(=O)[C@@H](Cc1c[nH]c2ccccc12)NC(=S)Nc1cc(C(F)(F)F)cc(C(F)(F)F)c1
Output: 62.5
